Molecular target: HLA-A*11:01
Test: IEDB peptide-MHC binding, purified MHC/competitive/radioactivity; filed as Kd, often an IC50 or EC50 that approximates it; bounds were set here for any values at or beyond the usual limits of such assays
Conditions: source organism: Mammarenavirus lassaense
measured_parameter: Kd

Prompt: May I ask what Kd has been recorded for LVTFLLLCGR ?
Response: ≥ 5 µM

Values from the Immune Epitope Database (IEDB)
